Tested on: 188146-221-R-J1-PDC complex spheroid viability;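 further: spheroids exposed to compounds for seven days; 100% = DMSO vehicle control viability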
Test: Anticancer human tumor 188146-221-R-J1-PDC patient-derived colon adenocarcinoma cell line growth inhibition [POLQ]
Conditions: second compound 10 µM; first compound 0.316 µM; hits give low values
Give measured viability, T/C for each item. Keep answers brief.
Only the number, expressed in %, is required.

Tested on 188146-221-R-J1-PDC complex spheroid viability, the item O=c1[nH]cc(F)c(=O)[nH]1 + COC1C(OC(N)=O)C(O)C(Oc2ccc3c(O)c(NC(=O)c4ccc(O)c(CC=C(C)C)c4)c(=O)oc3c2C)OC1(C)C showed viability, T/C equal to 80.7

Item O=C(c1cc(Cc2n[nH]c(=O)c3ccccc23)ccc1F)N1CCN(C(=O)C2CC2)CC1 + Nc1ccc(C#CCN(C(=O)Cc2ncc(C(F)(F)F)cc2C(F)(F)F)c2ccc(F)cc2)nn1 ; assay system 188146-221-R-J1-PDC complex spheroid viability; viability, T/C reported as 110

Reported viability, T/C (188146-221-R-J1-PDC complex spheroid viability) for entry CC1COCCN1c1cc(C2(O)CC3CCC(C2)O3)c2cnn(-c3ccn[nH]3)c2n1 (stereo not given) + Cc1cccc(N(C)C(=O)C2C(O)CCN2c2nc(C)cc(C(F)(F)F)c2C#N)c1 is 43.4

The compound CCCS(=O)(=O)Nc1ccc(F)c(C(=O)c2c[nH]c3ncc(-c4ccc(Cl)cc4)cc23)c1F + Nc1ccc(C#CCN(C(=O)Cc2ncc(C(F)(F)F)cc2C(F)(F)F)c2ccc(F)cc2)nn1 on 188146-221-R-J1-PDC complex spheroid viability: viability, T/C was 103

Response field viability, T/C (188146-221-R-J1-PDC complex spheroid viability) for item O=C(Nc1ccc(O)c(NS(=O)(=O)c2ccc(F)cc2)c1)c1ccc(-c2ccccc2)cc1 + Cc1cccc(N(C)C(=O)C2C(O)CCN2c2nc(C)cc(C(F)(F)F)c2C#N)c1 : 101

Entry CCc1cc2c(N3CCc4c(cc(Cn5ccnc5)cc4-c4cn(C)nc4C(F)(F)F)C3=O)ccnc2c(OC)n1 + Cc1cccc(N(C)C(=O)C2C(O)CCN2c2nc(C)cc(C(F)(F)F)c2C#N)c1 : viability, T/C on 188146-221-R-J1-PDC complex spheroid viability = 74.1

The measured viability, T/C that CNCc1ccc(-c2[nH]c3cc(F)cc4c3c2CCNC4=O)cc1 + Nc1ccc(C#CCN(C(=O)Cc2ncc(C(F)(F)F)cc2C(F)(F)F)c2ccc(F)cc2)nn1 showed for 188146-221-R-J1-PDC complex spheroid viability is 112

Lab note: compound COc1cc(C2c3cc4c(cc3C(OC3OC5COC(C)OC5C(O)C3O)C3COC(=O)C23)OCO4)cc(OC)c1O (stereo not given) + Cc1cccc(N(C)C(=O)C2C(O)CCN2c2nc(C)cc(C(F)(F)F)c2C#N)c1 tested on 188146-221-R-J1-PDC complex spheroid viability; recorded viability, T/C was 61.2

Bench note, 188146-221-R-J1-PDC complex spheroid viability: C=CCn1c(=O)c2cnc(Nc3ccc(N4CCN(C)CC4)cc3)nc2n1-c1cccc(C(C)(C)O)n1 + Cc1cccc(N(C)C(=O)C2C(O)CCN2c2nc(C)cc(C(F)(F)F)c2C#N)c1 , viability, T/C reads 97

viability, T/C for 188146-221-R-J1-PDC complex spheroid viability with input C=CC(=O)N1CCN(c2nc(=O)n(-c3c(C)ccnc3C(C)C)c3nc(-c4c(O)cccc4F)c(F)cc23)C(C)C1 (stereo not given) + Nc1ccc(C#CCN(C(=O)Cc2ncc(C(F)(F)F)cc2C(F)(F)F)c2ccc(F)cc2)nn1 equals 107

Record COc1cc(C2c3cc4c(cc3C(OC3OC5COC(C)OC5C(O)C3O)C3COC(=O)C23)OCO4)cc(OC)c1O (stereo not given) + Nc1ccc(C#CCN(C(=O)Cc2ncc(C(F)(F)F)cc2C(F)(F)F)c2ccc(F)cc2)nn1 ; system 188146-221-R-J1-PDC complex spheroid viability; viability, T/C = 58.8

Recorded viability, T/C for C#Cc1c(F)ccc2cc(O)cc(-c3ncc4c(N5CC6CCC(C5)N6)nc(OCC56CCCN5CC(F)C6)nc4c3F)c12 (stereo not given) + Nc1ccc(C#CCN(C(=O)Cc2ncc(C(F)(F)F)cc2C(F)(F)F)c2ccc(F)cc2)nn1 on 188146-221-R-J1-PDC complex spheroid viability was 87.1

Sample COc1cccc(OCCCN)c1-c1cc(Nc2cnc(C#N)cn2)n[nH]1 + Nc1ccc(C#CCN(C(=O)Cc2ncc(C(F)(F)F)cc2C(F)(F)F)c2ccc(F)cc2)nn1 , system: 188146-221-R-J1-PDC complex spheroid viability. Its viability, T/C is 17

Tested system 188146-221-R-J1-PDC complex spheroid viability; viability, T/C recorded for CC(C)n1c(=O)n(C)c2cnc3cc(F)c(-c4ccc(OCCCN5CCCCC5)nc4)cc3c21 + COC1C(OC(N)=O)C(O)C(Oc2ccc3c(O)c(NC(=O)c4ccc(O)c(CC=C(C)C)c4)c(=O)oc3c2C)OC1(C)C was 109

Kindly note: 188146-221-R-J1-PDC complex spheroid viability, CC1COCCN1c1cc(C2(O)CC3CCC(C2)O3)c2cnn(-c3ccn[nH]3)c2n1 (stereo not given) + Nc1ccc(C#CCN(C(=O)Cc2ncc(C(F)(F)F)cc2C(F)(F)F)c2ccc(F)cc2)nn1 , viability, T/C value reported: 41.4

# lookup: CCc1cc2c(N3CCc4c(cc(Cn5ccnc5)cc4-c4cn(C)nc4C(F)(F)F)C3=O)cc(C)nc2c(OC)n1 + Cc1cccc(N(C)C(=O)C2C(O)CCN2c2nc(C)cc(C(F)(F)F)c2C#N)c1 on 188146-221-R-J1-PDC complex spheroid viability, viability, T/C = 96.7

viability, T/C of CCc1cc2c(N3CCc4c(cc(Cn5ccnc5)cc4-c4cn(C)nc4C(F)(F)F)C3=O)ccnc2c(OC)n1 + Nc1ccc(C#CCN(C(=O)Cc2ncc(C(F)(F)F)cc2C(F)(F)F)c2ccc(F)cc2)nn1 , assay on 188146-221-R-J1-PDC complex spheroid viability, is 107

Form: item CC1COCCN1c1cc(C2(S(C)(=N)=O)CC2)nc(-c2ccnc3[nH]ccc23)n1 (stereo not given) + COC1C(OC(N)=O)C(O)C(Oc2ccc3c(O)c(NC(=O)c4ccc(O)c(CC=C(C)C)c4)c(=O)oc3c2C)OC1(C)C ; test system 188146-221-R-J1-PDC complex spheroid viability; viability, T/C: 103

Query CCc1c2c(nc3ccc(O)cc13)-c1cc3c(c(=O)n1C2)COC(=O)[C@]3(O)CC + COC1C(OC(N)=O)C(O)C(Oc2ccc3c(O)c(NC(=O)c4ccc(O)c(CC=C(C)C)c4)c(=O)oc3c2C)OC1(C)C on 188146-221-R-J1-PDC complex spheroid viability; viability, T/C returned: 9.1

The observed viability, T/C for CCCS(=O)(=O)Nc1ccc(F)c(C(=O)c2c[nH]c3ncc(-c4ccc(Cl)cc4)cc23)c1F + Cc1cccc(N(C)C(=O)C2C(O)CCN2c2nc(C)cc(C(F)(F)F)c2C#N)c1 when tested with 188146-221-R-J1-PDC complex spheroid viability stands at 105
